# testedOn: UniProt O43613
# measurementDescription: Orexin antagonist activity, intracellular calcium FLIPR assay (orexin receptor 1)
# condition: RBL-2H3 cells stably expressing human orexin receptor 1; Ca2+ dye FLIPR; compound 15 minutes before orexin-A at approximately 80% maximal response; read-out: Human Orexin1R IC50
outcomeMeasure: IC50 (nM)

For the molecule O=C(N[C@H]1CCC[C@@H]1Nc1nc2ccc(F)cc2s1)c1cc(F)ccc1-n1nccn1 [Example 36] , give its measured IC50 value. 8.3

For the molecule COc1cccc(OC)c1C(=O)N[C@H]1CCC[C@@H]1Nc1nc2cc(Cl)ccc2s1 [Example 6] , give its measured IC50 value. 35

For the molecule O=C(N[C@H]1CCC[C@@H]1Nc1nc2cc(Cl)ccc2s1)c1ccccc1-n1nccn1 [Example 89] , give its measured IC50 value. 27

For the molecule Cc1ccc(-n2nccn2)c(C(=O)N[C@H]2CCC[C@@H]2Nc2ccc3ccccc3n2)c1 [Example 20] , give its measured IC50 value. 290

For the molecule Cc1ccc(-n2nccn2)c(C(=O)NC2CCCC2Cc2ccc3ccccc3n2)c1 (centres unmarked) [Example 27] , give its measured IC50 value. 52

[A] O=C(N[C@H]1CCC[C@@H]1Nc1nc2ccccc2s1)c1ccccc1-n1nccn1 [Example 90]
[B] O=C(N[C@H]1CCC[C@@H]1Nc1nc2ccc(F)cc2s1)c1ccccc1-n1ccnn1 [Example 73]
[C] Cc1ccc(-n2nccn2)c(C(=O)N[C@@H]2COC[C@@H]2Cc2nc3ccccc3s2)c1 (relative stereo) [Example 102]
Highest IC50 first, then in falling order down to the smallest. Your answer should be the labels, listed in the requested order. C, B, A
(C: 79 nM, B: 35 nM, A: 16 nM)

* * *

# testedOn: UniProtKB O43613
# measurementDescription: Orexin antagonist activity, intracellular calcium FLIPR assay (orexin receptor 1)
# condition: RBL-2H3 cells stably expressing human orexin receptor 1; Ca2+ dye FLIPR; compound 15 minutes before orexin-A at approximately 80% maximal response; read-out: Human Orexin1R IC50
outcomeMeasure: IC50 (nM)

For the compound COc1cccc(OC)c1C(=O)N[C@H]1CCC[C@@H]1N(C)c1nc2ccc(F)cc2s1 , give its measured IC50 value. 35

For the compound Cc1ccc(-n2nccn2)c(C(=O)NC2CCCC2Cc2nc3ccc(Cl)cc3s2)c1 (centres unmarked) , give its measured IC50 value. 51

For the compound O=C(NC1COCC1Nc1nc2ccc(F)cc2s1)c1ccccc1-n1nccn1 (single isomer, unassigned) [Example 101] , give its measured IC50 value. 730

[a] COc1cccc(OC)c1C(=O)N[C@H]1CCC[C@@H]1Nc1nc2ccc(Cl)cc2s1
[b] CCOc1ccc(C)cc1C(=O)NC1CCCC1Cc1ccc2ccccc2n1 (centres unmarked) [Example 28]
[c] CN(C(=O)c1cc(F)ccc1-n1nccn1)[C@H]1CCC[C@@H]1Nc1nc2ccc(F)cc2s1
[d] O=C(NC1COCC1Nc1nc2ccc(F)cc2s1)c1ccccc1-n1nccn1 (single isomer, unassigned) [Example 100]
Highest IC50 first, then in falling order down to the smallest. Your answer should be the labels, listed in the requested order. a, b, d, c
(a: 210 nM, b: 140 nM, d: 22 nM, c: 1 nM)

* * *

# testedOn: human orexin receptor 2 (Homo sapiens (Human))
# Sequence (O43614 whole entry): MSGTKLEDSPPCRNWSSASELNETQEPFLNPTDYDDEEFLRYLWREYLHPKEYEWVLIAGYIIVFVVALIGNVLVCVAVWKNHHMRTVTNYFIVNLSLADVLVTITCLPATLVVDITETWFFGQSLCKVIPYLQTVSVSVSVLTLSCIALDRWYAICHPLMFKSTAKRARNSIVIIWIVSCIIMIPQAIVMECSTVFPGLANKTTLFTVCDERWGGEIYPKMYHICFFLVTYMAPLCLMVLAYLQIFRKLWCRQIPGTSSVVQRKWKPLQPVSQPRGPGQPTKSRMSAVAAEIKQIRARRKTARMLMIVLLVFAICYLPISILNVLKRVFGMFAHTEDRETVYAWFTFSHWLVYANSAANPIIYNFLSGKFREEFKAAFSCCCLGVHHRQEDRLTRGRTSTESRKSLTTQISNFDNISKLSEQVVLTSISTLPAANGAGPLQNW
# measurementDescription: Orexin antagonist activity, intracellular calcium FLIPR assay (orexin receptor 2)
# condition: RBL-2H3 cells stably expressing human orexin receptor 2; Ca2+ dye FLIPR; compound 15 minutes before orexin-A at approximately 80% maximal response; read-out: Human Orexin2R IC50
# Description: Orexin antagonist activity was determined by measuring changes in intracellular calcium levels using a Ca^2+ sensitive fluorescent dye. […] The IC50 values were determined from ten point concentration response curves. […]
pIC50: −log10 of the molar value.
outcomeMeasure: pIC50

Worked cases, pIC50 given:
For the compound COc1cccc(OC)c1C(=O)NC1CN(C(=O)OCc2ccccc2)CC1Nc1nc2ccc(Cl)cc2s1 (stereo not shown) , give its measured pIC50 value. 5.07

For the compound CC1(Nc2nc3ccc(F)cc3s2)CCCC1NC(=O)c1ccccc1-n1nccn1 (stereo not shown) , give its measured pIC50 value. 7.22

[I] O=C(N[C@H]1CCC[C@@H]1Nc1nc2ccc(F)cc2s1)c1c(F)cccc1-n1nccn1
[II] COc1cccc(OC)c1C(=O)N[C@H]1CCC[C@@H]1Nc1nc2ccc(Cl)cc2s1
In terms of reported pIC50, does I or II have the smaller number? State your choice using its label. II

* * *

# testedOn: human orexin receptor 1 (Homo sapiens (Human))
# Sequence (O43613 whole entry): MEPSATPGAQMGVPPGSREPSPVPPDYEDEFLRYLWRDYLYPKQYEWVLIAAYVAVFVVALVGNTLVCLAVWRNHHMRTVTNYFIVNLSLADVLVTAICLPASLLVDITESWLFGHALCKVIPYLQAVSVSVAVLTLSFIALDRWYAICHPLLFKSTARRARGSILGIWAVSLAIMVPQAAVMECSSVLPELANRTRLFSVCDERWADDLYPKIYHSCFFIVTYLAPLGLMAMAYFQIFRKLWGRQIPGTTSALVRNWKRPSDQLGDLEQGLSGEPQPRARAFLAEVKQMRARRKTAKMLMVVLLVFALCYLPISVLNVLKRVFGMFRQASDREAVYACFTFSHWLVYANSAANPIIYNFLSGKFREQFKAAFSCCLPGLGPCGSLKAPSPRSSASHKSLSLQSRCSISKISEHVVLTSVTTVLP
# measurementDescription: Orexin antagonist activity, intracellular calcium FLIPR assay (orexin receptor 1)
# condition: RBL-2H3 cells stably expressing human orexin receptor 1; Ca2+ dye FLIPR; compound 15 minutes before orexin-A at approximately 80% maximal response; read-out: Human Orexin1R IC50
outcomeMeasure: IC50 (µM)

Worked cases, IC50 given:
Quote IC50 with test system human orexin receptor 1 (Homo sapiens (Human)) for COc1cccc(OC)c1C(=O)N[C@H]1CCC[C@@H]1Nc1cnc2ccccc2n1 0.036

Quote IC50 with test system human orexin receptor 1 (Homo sapiens (Human)) for O=C(N[C@H]1CCC[C@@H]1Nc1nc2ccc(F)cc2s1)c1ccccc1-n1ccnc1 0.039

[1] COc1ccccc1C(=O)N[C@H]1CCC[C@@H]1Nc1nc2ccc(F)cc2s1
[2] COc1cccc(OC)c1C(=O)N[C@H]1CCC[C@@H]1Nc1nc2ccccc2o1
In terms of reported IC50, does 1 or 2 have the smaller number? State your choice using its label. 2
(2: 0.099 µM, 1: 0.19 µM)

* * *

# testedOn: human orexin receptor 2 (Homo sapiens (Human))
# measurementDescription: Orexin antagonist activity, intracellular calcium FLIPR assay (orexin receptor 2)
# condition: RBL-2H3 cells stably expressing human orexin receptor 2; Ca2+ dye FLIPR; compound 15 minutes before orexin-A at approximately 80% maximal response; read-out: Human Orexin2R IC50
outcomeMeasure: IC50 (µM)

Worked cases, IC50 given:
Quote IC50 with test system human orexin receptor 2 (Homo sapiens (Human)) for COc1cccc(OC)c1C(=O)NC1C[C@@H](O)CC1Nc1nc2ccc(Cl)cc2s1 (stereo in doubt) 0.13

Quote IC50 with test system human orexin receptor 2 (Homo sapiens (Human)) for O=C(N[C@H]1CCC[C@@H]1Nc1nc2ccc(F)cc2s1)c1ccccc1Cl 3.5

Quote IC50 with test system human orexin receptor 2 (Homo sapiens (Human)) for COc1cccc(OC)c1C(=O)N[C@@H]1CCC[C@H]1Nc1nc2ccccc2o1 3.5

Quote IC50 with test system human orexin receptor 2 (Homo sapiens (Human)) for O=C(N[C@H]1CCC[C@@H]1Nc1nc2cc(F)ccc2s1)c1ccccc1-n1nccn1 8.6

Quote IC50 with test system human orexin receptor 2 (Homo sapiens (Human)) for Cc1ccc(-n2nccn2)c(C(=O)NC2CCCC2Cc2ccc3ccccc3n2)c1 (stereo not shown) [Example 27] 8.5

[I] COc1cccc(OC)c1C(=O)N[C@@H]1CCC[C@H]1Nc1nc2ccc(Cl)cc2s1
[II] COc1cccc(OC)c1C(=O)NC1CCCC1Cc1nc2ccc(Cl)cc2s1 (stereo not shown)
In terms of reported IC50, does I or II have the smaller number? State your choice using its label. I
(I: 0.68 µM, II: 0.98 µM)

[1] CN(C(=O)c1cc(F)ccc1-n1nccn1)[C@H]1CCC[C@@H]1Nc1nc2ccc(F)cc2s1
[2] COc1cccc(F)c1C(=O)N[C@H]1CCC[C@@H]1Nc1nc2ccc(F)cc2s1
In terms of reported IC50, does 1 or 2 have the smaller number? State your choice using its label. 1

[A] CCOC(=O)N1CC(NC(=O)c2c(OC)cccc2OC)C(Nc2nc3ccc(Cl)cc3s2)C1 (stereo not shown)
[B] CN(C(=O)c1ccccc1Cl)[C@H]1CCC[C@@H]1Nc1nc2ccc(F)cc2s1
Exercise: compare A and B ; which one has the greater IC50? State your choice using its label. B
(B: 2.4 µM, A: 0.62 µM)

* * *

# testedOn: human orexin receptor 2 (Homo sapiens (Human))
# measurementDescription: Orexin antagonist activity, intracellular calcium FLIPR assay (orexin receptor 2)
# Type: cell-based
# condition: RBL-2H3 cells stably expressing human orexin receptor 2; Ca2+ dye FLIPR; compound 15 minutes before orexin-A at approximately 80% maximal response; read-out: Human Orexin2R IC50
outcomeMeasure: IC50 (µM)

Quote IC50 with test system human orexin receptor 2 (Homo sapiens (Human)) for COc1ccccc1C(=O)N[C@H]1CCC[C@@H]1Nc1nc2ccc(F)cc2s1 3.4

Quote IC50 with test system human orexin receptor 2 (Homo sapiens (Human)) for COc1cccc(OC)c1C(=O)N[C@H]1CCC[C@@H]1Nc1nc2ccc(F)cc2s1 7.6

[A] O=C(N[C@H]1CCC[C@@H]1Nc1nc2c(F)cc(F)cc2s1)c1ccccc1-n1nccn1
[B] COc1ccc(F)cc1C(=O)N[C@H]1CCC[C@@H]1Nc1nc2ccc(F)cc2s1
In terms of reported IC50, does A or B have the smaller number? State your choice using its label. B

* * *

# testedOn: UniProtKB O43613
# measurementDescription: Orexin antagonist activity, intracellular calcium FLIPR assay (orexin receptor 1)
# condition: RBL-2H3 cells stably expressing human orexin receptor 1; Ca2+ dye FLIPR; compound 15 minutes before orexin-A at approximately 80% maximal response; read-out: Human Orexin1R IC50
outcomeMeasure: IC50 (nM)

Worked cases, IC50 given:
For the molecule COc1ccc(OC)c(C(=O)N[C@H]2CCC[C@@H]2Nc2nc3ccc(F)cc3s2)c1 [Example 41] , give its measured IC50 value. 16

For the molecule COc1cccc(OC)c1C(=O)N[C@H]1CCC[C@H]1Nc1nc2ccc(Cl)cc2s1 [Example 15] , give its measured IC50 value. 35

For the molecule Cc1ccc(-n2nccn2)c(C(=O)N[C@H]2CCC[C@@H]2Nc2nc3ccccc3s2)c1 [Example 19] , give its measured IC50 value. 15

For the molecule O=C(N[C@H]1CCC[C@@H]1Nc1nc2cc(F)ccc2o1)c1ccccc1-n1nccn1 [Example 88] , give its measured IC50 value. 21

For the molecule COc1cccc(C(=O)N[C@H]2CCC[C@@H]2Nc2nc3ccc(F)cc3s2)c1 [Example 56] , give its measured IC50 value. 540

For the molecule O=C(N[C@H]1CCC[C@@H]1Nc1nc2ccc(F)cc2s1)c1ccccc1-c1ncccn1 [Example 40] , give its measured IC50 value. 15

For the molecule COc1cccc(F)c1C(=O)N[C@H]1CCC[C@@H]1Nc1nc2ccc(F)cc2s1 [Example 46] , give its measured IC50 value. 110

For the molecule CCOc1ccccc1C(=O)N[C@H]1CCC[C@@H]1Nc1nc2ccc(F)cc2s1 [Example 49] , give its measured IC50 value. 190

For the molecule COc1cccc(OC)c1C(=O)NC1CCCC1Cc1ccc2ccccc2n1 (centres unmarked) [Example 29] , give its measured IC50 value. 550

For the molecule COc1cccc(OC)c1C(=O)N[C@H]1CCC[C@H]1Nc1nc2ccccc2o1 [Example 7] , give its measured IC50 value. 26

[a] O=C(N[C@H]1CCC[C@@H]1Nc1nc2ccc(F)cc2s1)c1c(F)cccc1F [Example 47]
[b] O=C(N[C@H]1CCC[C@@H]1Nc1nc2ccc(F)cc2s1)c1cc(F)ccc1-n1ccnn1 [Example 45]
In terms of reported IC50, does a or b have the smaller number? State your choice using its label. b
(b: 80 nM, a: 150 nM)

[a] Cc1noc(-c2ccccc2C(=O)NC2CCC[C@@H]2Nc2nc3ccc(F)cc3o2)n1 (stereo in doubt) [Example 99]
[b] COc1ccccc1C(=O)N(C)[C@H]1CCC[C@@H]1Nc1nc2ccc(F)cc2s1 [Example 77]
Exercise: compare a and b ; which one has the greater IC50? State your choice using its label. b

[A] COc1ccc(C)cc1C(=O)N[C@H]1CCC[C@@H]1Nc1nc2ccc(F)cc2s1 [Example 67]
[B] O=C(N[C@H]1CCC[C@@H]1Nc1nc2ccc(F)cc2s1)c1c(Cl)cccc1-n1nccn1 [Example 71]
Exercise: compare A and B ; which one has the greater IC50? State your choice using its label. A

The values you see were collected from patent US9493432B2.
